The measured values listed here are drawn from patent US11491100B2.

- METHOD_DESCRIPTION: Ranking of candidate chelator and base agents by potency score
- Set-up: key: 1 = most desired, 3 = least desired
- PROTOCOL_CONDITIONS: base agents that may be used in combination with chelators
QUANTITY_MEASURED: POTENCY (score 1-3)
Would you mind answering with just the numeric figure?

Q. What does the data say about its POTENCY (score 1-3)? Entry: NC(CO)(CO)CO [Tris amine]
A. 2

Q. What does the data say about its POTENCY (score 1-3)? Entry: CNC(=C[N+](=O)[O-])NCCSCc1ccc(CN(C)C)o1 [Remitidine, reference compound]
A. 1

Q. What does the data say about its POTENCY (score 1-3)? Entry: Cc1ncc(CO)c(CO)c1O [Pyridoxine]
A. 1

Q. What does the data say about its POTENCY (score 1-3)? Entry: O=P([O-])([O-])O.[Ca+2] [Dibasic calcium phosphate]
A. 3

Q. What does the data say about its POTENCY (score 1-3)? Entry: Cc1ncc(COP(=O)(O)O)c(C=O)c1O [Pyridoxal-5-phosphate]
A. 1

Q. What does the data say about its POTENCY (score 1-3)? Entry: OCN(CO)CO [Tris (hydroxymethyl) amine]
A. 2

Q. What does the data say about its POTENCY (score 1-3)? Entry: OC[C@H]1O[C@H](O[C@H]2[C@H](O)[C@@H](O)[C@H](O)O[C@@H]2CO)[C@H](O)[C@@H](O)[C@@H]1O [D-maltose]
A. 1

Q. What does the data say about its POTENCY (score 1-3)? Entry: O=c1cc[nH]c(=O)[nH]1 [Uracil]
A. 3

Q. What does the data say about its POTENCY (score 1-3)? Entry: NC(N)=Nc1nc(CSCCC(N)=NS(N)(=O)=O)cs1 [Famotidine, reference compound]
A. 1

Q. What does the data say about its POTENCY (score 1-3)? Entry: Cc1ncc(CO)c(CN)c1O [Pyridoxamine]
A. 1
